Assay: Permeability of the compound by PAMPA
Assay type: ADME
Settings: read-out: permeability

{"columns": ["Query smiles", "Papp [×10⁻⁶ cm/s]"],
 "data": [
  ["CCn1cc(-c2cccc(C(F)(F)F)c2)c2sc(C(=N)NC3CCS(=O)(=O)CC3)cc2c1=O", 21]
]}

====

Target: Bromodomain-containing protein 3 (Homo sapiens, UniProt Q15059)
Sequence (Q15059 whole entry): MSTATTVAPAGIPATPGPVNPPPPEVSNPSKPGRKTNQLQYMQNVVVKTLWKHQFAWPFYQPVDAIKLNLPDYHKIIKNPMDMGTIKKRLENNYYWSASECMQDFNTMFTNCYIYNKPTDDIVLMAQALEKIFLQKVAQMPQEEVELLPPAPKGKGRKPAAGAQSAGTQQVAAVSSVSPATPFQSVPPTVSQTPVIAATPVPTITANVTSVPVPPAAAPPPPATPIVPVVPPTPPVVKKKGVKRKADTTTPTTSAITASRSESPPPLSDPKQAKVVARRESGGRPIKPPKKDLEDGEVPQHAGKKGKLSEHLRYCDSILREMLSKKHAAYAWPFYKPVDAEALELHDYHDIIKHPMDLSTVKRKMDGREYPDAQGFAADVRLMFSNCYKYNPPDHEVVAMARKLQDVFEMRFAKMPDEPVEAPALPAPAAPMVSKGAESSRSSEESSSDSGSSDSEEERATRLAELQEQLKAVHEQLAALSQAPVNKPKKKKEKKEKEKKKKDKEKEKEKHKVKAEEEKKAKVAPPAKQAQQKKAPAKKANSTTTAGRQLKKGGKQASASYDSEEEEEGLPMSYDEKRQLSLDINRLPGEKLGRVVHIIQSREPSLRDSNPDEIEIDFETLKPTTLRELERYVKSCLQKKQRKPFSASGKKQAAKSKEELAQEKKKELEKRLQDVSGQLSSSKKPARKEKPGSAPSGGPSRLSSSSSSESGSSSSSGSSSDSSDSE
Assay: Inhibition of BRD3 in human HUT78 cells incubated for 45 mins by chemoproteomic competition binding assay

{"columns": ["Query smiles", "IC50"],
 "data": [
  ["CCn1cc(-c2cccc(C(F)(F)F)c2)c2sc(C(=N)NC3CCS(=O)(=O)CC3)cc2c1=O", "> 50.1 µM"]
]}

====

Biological target: Bromodomain-containing protein 4 (Homo sapiens)
Test: Inhibition of BRD4 bromodomain 1 (unknown origin) incubated in dark for 30 mins by TR-FRET assay
// reported IC50 for each item listed
Readout name: IC50

{"columns": ["Query smiles", "Measured"],
 "data": [
  ["COc1ccc(-c2cn(C)c(=O)c3cc(C(=O)N4CCN(S(C)(=O)=O)CC4)sc23)cc1OC", "20000 nM"],
  ["CC(C)n1cc(-c2cccc(C(F)(F)F)c2)c2sc(C(=N)NC3CCS(=O)(=O)CC3)cc2c1=O", "> 50100 nM"],
  ["COc1ccc(-c2cn(C)c(=O)c3cc(C(=N)NC4CCS(=O)(=O)CC4)sc23)cc1OC", "398 nM"],
  ["COc1cccc(-c2cn(C)c(=O)c3cc(C(=N)NC4CCS(=O)(=O)CC4)sc23)c1", "794 nM"]
]}

====

Experiment: Dissociation constant, pKa of the compound
Format: physicochemical
Readout name: pKa

{"columns": ["Query smiles", "Readout name", "Measured"],
 "data": [
  ["Cn1cc(-c2cccc(C(F)(F)F)c2)c2sc(C(=N)NC3CCS(=O)(=O)CC3)cc2c1=O", "pKa", 8.4]
]}

====

Experiment: Lipophilicity, logD of the compound at pH 7.4
Format: physicochemical
Settings: buffer
Readout name: logD

{"columns": ["Query smiles", "Measured"],
 "data": [
  ["CCn1cc(-c2cccc(C(F)(F)F)c2)c2sc(C(=N)NC3CCS(=O)(=O)CC3)cc2c1=O", 3.7]
]}

====

// reported IC50 for each item listed
Target: Bromodomain-containing protein 9 (Homo sapiens, UniProt Q9H8M2)
Sequence (Q9H8M2 whole entry): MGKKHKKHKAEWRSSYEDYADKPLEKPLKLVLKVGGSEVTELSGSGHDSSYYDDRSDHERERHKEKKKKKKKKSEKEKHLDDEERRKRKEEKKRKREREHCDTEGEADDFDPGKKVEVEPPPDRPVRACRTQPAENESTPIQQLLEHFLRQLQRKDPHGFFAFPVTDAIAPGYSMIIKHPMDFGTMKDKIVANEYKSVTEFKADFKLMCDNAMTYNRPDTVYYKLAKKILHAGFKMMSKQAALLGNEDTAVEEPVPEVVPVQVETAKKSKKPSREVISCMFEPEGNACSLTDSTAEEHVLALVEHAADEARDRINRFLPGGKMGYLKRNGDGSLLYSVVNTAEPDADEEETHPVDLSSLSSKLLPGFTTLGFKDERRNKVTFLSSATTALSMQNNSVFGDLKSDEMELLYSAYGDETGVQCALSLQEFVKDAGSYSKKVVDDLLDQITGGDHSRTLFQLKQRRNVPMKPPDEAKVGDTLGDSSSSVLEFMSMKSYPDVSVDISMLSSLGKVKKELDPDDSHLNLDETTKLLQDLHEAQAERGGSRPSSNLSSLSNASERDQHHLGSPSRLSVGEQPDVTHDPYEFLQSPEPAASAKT
Test: Inhibition of BRD9 (unknown origin) incubated in dark for 30 mins by TR-FRET assay

{"columns": ["Query smiles", "U", "IC50"],
 "data": [
  ["COc1ccc(-c2cn(C)c(=O)c3cc(C(=O)N4CCN(S(C)(=O)=O)CC4)sc23)cc1OC", "µM", 0.2],
  ["Cn1cc(-c2cccc(C(F)(F)F)c2)c2sc(C(=N)NC3CCS(=O)(=O)CC3)cc2c1=O", "µM", 0.0158],
  ["CN(C)c1cccc(-c2cn(C)c(=O)c3cc(C(=N)NC4CCS(=O)(=O)CC4)sc23)c1", "µM", 0.01],
  ["Cn1cc(-c2ccccc2)c2sc(C(=N)NC3CCS(=O)(=O)CC3)cc2c1=O", "µM", 0.0398]
]}
